tested on: immobilized GMP-140; assay: ELISA (avidin detection) of binding of biotinylated monoclonal antibodies G1, G2, G3 to immobilized GMP-140 in presence of soluble peptide; set-up: species or system human; details: peptide 1.5 mM added to biotinylated mAb G3 (2.5 micrograms/ml) before addition to immobilized GMP-140
measure: % Binding of Biotinylated MAbs G3 (%)
Give bare numbers, in %.

Would you please look over these solved cases?
C-TERMINUS 761-777: C-terminal peptide (amino acid residues 761-777 of GMP-140) as a negative control (KDDGKCPLNPHSHLGTY; UniProt P16109 802-818, looked up, fragment) [reference compound]
100
LECTIN 110-116: synthetic peptide, amino acids 110-116 of the lectin domain of GMP-140 (LKKKHAL; UniProt P16109 151-157, looked up, fragment)
108
LECTIN 19-34: synthetic peptide, amino acids 19-34 of the lectin domain of GMP-140 (CQNRYTDLVAIQNKNE; UniProt P16109 60-75, looked up, fragment)
24

Please go through the list and note % Binding of Biotinylated MAbs G3 for each substance.
1. REPEATS 544-556: control peptide from one of the consensus repeats of GMP-140, amino acids 544-556
2. LECTIN 54-72: synthetic peptide, amino acids 54-72 of the lectin domain of GMP-140 (RKNNKTWTWVGTKKALTNE; UniProt P16109 95-113, looked up, fragment)

1: 111; 2: 104
